target: recombinant human IL-13 (human, UniProt P35225 35-146); assay: cell-based or functional assay
Sequence (P35225 35-146 limits assumed): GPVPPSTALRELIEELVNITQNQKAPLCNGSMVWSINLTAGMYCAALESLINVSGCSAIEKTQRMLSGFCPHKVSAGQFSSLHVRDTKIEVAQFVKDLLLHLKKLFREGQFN
ATTRIBUTE MEASURED: HEK-IL-13 [nM] (IC50, STAT6 reporter) (nM)

BDG38.119 (antibody, V domains shown) VH: QMQLVESGGGVVQPGRSLRLSCAASGFEFRTYGMHWVRQAPGKGLEWVGVIWYDGSNTHYADSVKGRFTITRDNSKNTLNLQMNSLRAEDTAVYYCVRAPQWYLTAEAFDLWGQGTMVTVSS VL: SYILTQPPSVSVAPGETATITCGGNLIGARLVHWYQQKPGQAPVLVIYDDSDRPSRIPERFSGSNIGNTATLTISRVEEGDEADYYCQVWDYSSNTYVFGGGTKLTVL :: 0.0662
BDG38.123 (antibody, V domains shown) VH: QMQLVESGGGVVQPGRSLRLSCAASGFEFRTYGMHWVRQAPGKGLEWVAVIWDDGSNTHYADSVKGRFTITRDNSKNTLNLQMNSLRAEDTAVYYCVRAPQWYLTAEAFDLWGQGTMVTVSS VL: SYILTQPPSVSVAPGETATITCGGNLIGARLVHWYQQKPGQAPVLVIYDDSDRPSRIPERFSGSNIGNTATLTISDVEAGDEADYYCQVWDYSSDTYVFGGGTKLTVL :: 0.044
BDG38.125 (antibody, V domains shown, IgG1) VH: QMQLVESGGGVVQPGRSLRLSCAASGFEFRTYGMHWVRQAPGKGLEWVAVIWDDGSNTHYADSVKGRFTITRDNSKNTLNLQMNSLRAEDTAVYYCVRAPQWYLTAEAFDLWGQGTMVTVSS VL: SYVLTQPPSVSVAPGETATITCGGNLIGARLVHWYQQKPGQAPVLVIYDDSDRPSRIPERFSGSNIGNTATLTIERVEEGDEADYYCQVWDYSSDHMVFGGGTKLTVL :: 0.0562
